FYI, the data here is from ChEMBL document CHEMBL3433997.

EXPERIMENTAL_SYSTEM: Hexose transporter 1 (Plasmodium falciparum) (UniProt O97467)
MEASUREMENT_NOTES: ST_JUDE_LEISH: Cytotoxicity at 2uM final concentration against transgenic Leishmania Mexicana promastigotes LmPfHT that are glucose transport deficient and complemented with the Plasmodium falciparum hexose transporter. Activity is measured by DNA content using SYBR green in vitro
Type: functional
Cut-off 4% on inhibition, inclusive. At or above means rule met; below means rule not met.

COMPOUND	CLASS_NAME
OCC1CCN(Cc2cccc(-c3ccc(-c4nc5cc(C(F)(F)F)ccc5[nH]4)s3)c2)CC1	rule met
CS(=O)(=O)c1ccc(CCNCc2ccc(-c3ccc(CN(C(=O)c4cccc(C#N)c4)C4CCN(Cc5ccccc5)CC4)cc3)nc2)cc1	rule met
COc1cccc(-c2cccc(CNC3CCN(CC4Cn5c(=O)ccc6ccc(F)c4c65)CC3)c2)c1 (stereo not given)	rule not met
CC(C)c1ccc(-c2noc(SCC(=O)N3CCCCC3C)n2)cc1 (stereo not given)	rule not met
Cc1cc(NC(=O)c2cccs2)ccc1OC1CCN(Cc2ccc(F)cc2)CC1	rule not met

====

EXPERIMENTAL_SYSTEM: Solute carrier family 2, facilitated glucose transporter member 1 (Homo sapiens)
MEASUREMENT_NOTES: ST_JUDE_LEISH: Cytotoxicity at 2uM final concentration against transgenic Leishmania Mexicana promastigotes LmGLUT1 that are glucose transport deficient and complemented with the human glucose transporter GLUT1. Activity is measured by DNA content using SYBR green in vitro
Assay type: functional
inhibition reference

MOLECULE	EXPERIMENTAL_SYSTEM	inhibition, %
Cc1cc(CNCCCCCCNCc2ccc(-c3ccccc3)cc2)ccc1O	Solute carrier family 2, facilitated glucose transporter member 1 (Homo sapiens)	7.54
CCCNc1ccc2nccc(CCN3CCC(NCc4ccc5c(n4)NC(=O)CS5)CC3)c2n1	Solute carrier family 2, facilitated glucose transporter member 1 (Homo sapiens)	3.5
COc1cc(SC)c(Br)cc1-c1nc2ccncc2[nH]1	Solute carrier family 2, facilitated glucose transporter member 1 (Homo sapiens)	3.09
Cc1cc(N[C@@H](Cc2ccccc2)C(=O)NC2CCCC2)nc(NCCOc2ccccc2)n1	Solute carrier family 2, facilitated glucose transporter member 1 (Homo sapiens)	1.41
c1cn(CCCNc2ncc(-c3ccsc3)c(-c3nccs3)n2)cn1	Solute carrier family 2, facilitated glucose transporter member 1 (Homo sapiens)	11
CN1CCN(c2ccc(Nc3ncc([N+](=O)[O-])c(Nc4ccccc4O)n3)cc2)CC1	Solute carrier family 2, facilitated glucose transporter member 1 (Homo sapiens)	2.1
N#Cc1cc(C(=O)c2cc(Br)ccc2O)cn(C2CCCCC2)c1=O	Solute carrier family 2, facilitated glucose transporter member 1 (Homo sapiens)	0.39
CCNc1cc(C(=O)N[C@@H](Cc2ccccc2)[C@H](O)CNC(C)(C)CCCC(C)C)cc(N2CCCCS2(=O)=O)c1	Solute carrier family 2, facilitated glucose transporter member 1 (Homo sapiens)	-0.28
COc1ccc(Nc2ccnc3cc(-c4ccccn4)ccc23)cc1OC	Solute carrier family 2, facilitated glucose transporter member 1 (Homo sapiens)	1.2
Cc1cccc2nc(-c3cccc(-c4ccc(NC(=O)c5ccncc5)cc4)c3)[nH]c12	Solute carrier family 2, facilitated glucose transporter member 1 (Homo sapiens)	2.81
CNC(=O)NC1=NC(C)(C)N(OCc2ccc(Cl)c(Cl)c2)C(NC(=O)NC)=N1	Solute carrier family 2, facilitated glucose transporter member 1 (Homo sapiens)	1.27
COc1cc(C=Cc2ccc3ccccc3n2)cc(Br)c1OCC(=O)N(C)C	Solute carrier family 2, facilitated glucose transporter member 1 (Homo sapiens)	6.85
CCC[C@@H]1CCN[C@H]([C@H](O)c2ccnc3ccc(OC)cc23)C1	Solute carrier family 2, facilitated glucose transporter member 1 (Homo sapiens)	4.68
Cc1ccc2c(-c3ccc([N+](=O)[O-])o3)cc(C)nc2c1	Solute carrier family 2, facilitated glucose transporter member 1 (Homo sapiens)	54.3
O=S(=O)(Nc1cc2c(cc1O)CCN(C1CCC1)CC2)c1ccc(-c2ccc(F)cc2)cc1	Solute carrier family 2, facilitated glucose transporter member 1 (Homo sapiens)	5.67
O=c1cc(NCCCNCc2cc3ccccc3s2)[nH]c2ccccc12	Solute carrier family 2, facilitated glucose transporter member 1 (Homo sapiens)	4.89
CCCNCc1c(O)ccc2c(CNCCC)c(O)ccc12	Solute carrier family 2, facilitated glucose transporter member 1 (Homo sapiens)	0.17
CN1CCCC(COc2cc3c(cc2Br)CCN3C(=O)Nc2ccc(-c3ccncc3)c(Cl)c2)C1 (stereo not drawn)	Solute carrier family 2, facilitated glucose transporter member 1 (Homo sapiens)	9.37
CN(C)CCOc1ccc2nc(-c3cccc(OCc4ccccc4)c3)[nH]c2c1C#N	Solute carrier family 2, facilitated glucose transporter member 1 (Homo sapiens)	2.41
CC(=O)Nc1ccc(S(=O)(=O)Nc2c(C)cc(Cc3cnc(N)nc3N)cc2C)cc1	Solute carrier family 2, facilitated glucose transporter member 1 (Homo sapiens)	-0.22
Cc1[nH]c(C)c(-c2ccc(OCc3ccc(OC(F)(F)F)cc3)nc2)c(=O)c1Br	Solute carrier family 2, facilitated glucose transporter member 1 (Homo sapiens)	8.89
CS(=O)(=O)CCNCc1ccc(-c2cc3c(Nc4ccc(OCc5cccc(F)c5)c(Cl)c4)ncnc3s2)[nH]1	Solute carrier family 2, facilitated glucose transporter member 1 (Homo sapiens)	0.33
CCCNC[C@@H](O)[C@H](Cc1ccccc1)NC(=O)c1cc(NCC)cc(N2CCCCS2(=O)=O)c1	Solute carrier family 2, facilitated glucose transporter member 1 (Homo sapiens)	1.97
Cc1cc(OCCCN2CCCC2)ccc1NC(=O)COc1ccc(Cl)cc1C(=O)c1cc(C#N)cc(C(F)(F)F)c1	Solute carrier family 2, facilitated glucose transporter member 1 (Homo sapiens)	73
COc1cc(Cc2cnc(N)nc2N)cc(OCc2cccc(C(=O)O)c2)c1OC	Solute carrier family 2, facilitated glucose transporter member 1 (Homo sapiens)	-0.05
O=C(NCCN1CCCC1)c1cccc(-c2ccc(-c3nc4cc(C(F)(F)F)ccc4[nH]3)cc2)c1	Solute carrier family 2, facilitated glucose transporter member 1 (Homo sapiens)	1.29
Cc1noc(C)c1-c1cccc(CNCc2ccc(-c3ccc(-c4nc5cc(F)ccc5[nH]4)cc3)cc2)c1	Solute carrier family 2, facilitated glucose transporter member 1 (Homo sapiens)	8.14
Cc1cc(C)cc(Oc2c(C(F)(F)F)oc3c(CN4CC(C)OC(C)C4)c(O)ccc3c2=O)c1 (stereo not drawn)	Solute carrier family 2, facilitated glucose transporter member 1 (Homo sapiens)	-0.42
O=C(Nc1cccc(F)c1)N(Cc1ccc(-c2cccc(CN3CCNCC3)c2)cc1)C1CCN(Cc2ccccc2)CC1	Solute carrier family 2, facilitated glucose transporter member 1 (Homo sapiens)	7.44
N=C(N)Nc1nc(-c2cccc(NC(=O)NCc3cccc4ccccc34)c2)cs1	Solute carrier family 2, facilitated glucose transporter member 1 (Homo sapiens)	1.1
Cc1nc(-c2ccccc2)nc(N2CCN(C(=O)c3ccco3)CC2)c1Cc1ccccc1F	Solute carrier family 2, facilitated glucose transporter member 1 (Homo sapiens)	7.73
CC(C)C[C@@H]1C(=O)N[C@H](C2Cc3ccccc3C2)C(=O)N1[C@@H](C(=O)O)c1ccc(F)cc1F	Solute carrier family 2, facilitated glucose transporter member 1 (Homo sapiens)	1.91
O=C(NCCCN1CCN(c2cccc(Cl)c2)CC1)c1ccc(-c2nc3cc(Cl)c(Cl)cc3[nH]2)c(F)c1	Solute carrier family 2, facilitated glucose transporter member 1 (Homo sapiens)	3.57
COc1ccc(CNCc2ccccc2)cc1-c1ccc(S(=O)(=O)NCCN2CCCC2)c(C)c1	Solute carrier family 2, facilitated glucose transporter member 1 (Homo sapiens)	3.15
Cc1c(C(=O)N2CCc3cc4nccc(N5CCN6CCC[C@H]6C5)c4cc32)cnn1-c1ccc(C#N)cc1	Solute carrier family 2, facilitated glucose transporter member 1 (Homo sapiens)	3.57
CC(C)CCCC(C)(C)NC[C@@H](O)[C@H](Cc1ccccc1)NC(=O)c1cc(NC(C)C)cc(N2CCCCS2(=O)=O)c1	Solute carrier family 2, facilitated glucose transporter member 1 (Homo sapiens)	-0.83
CS(=O)(=O)NCCCNCc1cccc(-c2ccc(-c3nc4ccccc4[nH]3)s2)c1	Solute carrier family 2, facilitated glucose transporter member 1 (Homo sapiens)	12.1
CC1(C)N=C(N)N=C(N)N1OCc1ccc2ccccc2c1	Solute carrier family 2, facilitated glucose transporter member 1 (Homo sapiens)	8.29

====

EXPERIMENTAL_SYSTEM: Hexose transporter 1 (Plasmodium falciparum) (UniProt O97467)
MEASUREMENT_NOTES: ST_JUDE_LEISH: Cytotoxicity at 2uM final concentration against transgenic Leishmania Mexicana promastigotes LmPfHT that are glucose transport deficient and complemented with the Plasmodium falciparum hexose transporter. Activity is measured by DNA content using SYBR green in vitro
Format: functional

INPUT_SMILES	EXPERIMENTAL_SYSTEM	inhibition (%)
CN(C)CCN(Cc1ccccc1-c1ccc(CNCCc2ccccc2)cc1)C(=O)NC1CCCCC1	Hexose transporter 1 (Plasmodium falciparum) (UniProt O97467)	3.66
CCc1ccc(CN(CCCOc2cccc(CC(=O)NCc3c[nH]cn3)c2)Cc2ccc(-n3ccnc3)cc2)cc1	Hexose transporter 1 (Plasmodium falciparum) (UniProt O97467)	2.84
Cc1ccc(C(C)C)cc1CON1C(=N)N=C(N)NC1(C)C	Hexose transporter 1 (Plasmodium falciparum) (UniProt O97467)	10.7
COc1ccc2c(N/N=C/c3ccccc3[N+](=O)[O-])cc(C)nc2c1	Hexose transporter 1 (Plasmodium falciparum) (UniProt O97467)	2.75
Cc1cccc(NC(=O)c2ccc(C(=O)NC3CCN(CC4CCCCC4)CC3)cc2)c1	Hexose transporter 1 (Plasmodium falciparum) (UniProt O97467)	7.67
CN1CCN(Cc2cccc(-c3ccc4c(Nc5cc(O)c(Cl)cc5F)ccnc4c3)c2)CC1	Hexose transporter 1 (Plasmodium falciparum) (UniProt O97467)	6.74
CS(=O)(=O)c1ccc(CNCc2cccc(-c3cccc(-c4nc5ccccc5[nH]4)c3)c2)cc1	Hexose transporter 1 (Plasmodium falciparum) (UniProt O97467)	0.28
Cc1ccc(NC(=O)C2CCC2)cc1-c1ccc(C(=O)NCC2CC2)cc1	Hexose transporter 1 (Plasmodium falciparum) (UniProt O97467)	0.51
Fc1ccc(CNc2ccc3ncc(-c4cccnc4)n3n2)cc1	Hexose transporter 1 (Plasmodium falciparum) (UniProt O97467)	2.21
O=[N+]([O-])c1ccccc1C=NN=c1cc[nH]c2ccccc12	Hexose transporter 1 (Plasmodium falciparum) (UniProt O97467)	1.68
